test summary: yeast display, Sf9 membrane polyspecificity reagent, FACS + sequencing; frameworks hold sequencing errors

sequence text	polyreactivity (PSR sort gate)
QVQLVESGGGLVQAGGSLRISCAASGSTLRSNAMGWYRQAPGKERELVASISSGGSTSYADSVKGRFPISRDNAKNTVYFQMNSLKPEDTAVLYCAADGTLTLYRYILDYWGQGTQVTVSS	low polyreactivity
QVQLVESGGGLVQAGGSLRLSCAASGRIFSRYAMGWYRQAPGKERELVAAISWSGGSTYYADSVKGRFTISRDKAKNTVYLQMNSLKPEDTAVYYCAAKRQYTEYNYWGQGTQVTVSS	high polyreactivity
QVQLVESGGGLVQAGGSLRLSCAASGSIFDDYAMGWYRQAPGKERELVAAISSSGTSTYYADSVKGRFTISRDNAKNTVYLQMNSLKPEDTAVYYCAKYAGVYEYDYWGQGTQVTVSS	low polyreactivity
QVQLVESGGGLVQAGGSLRLSCDASGLTFSGYVMGWYRQAPGKESELVAAISLSGGSTYYADSVKGRFTISRDNAKNTVYLQMNSLKPEDTAVYYCAARTPFYNSYRRDYWGQGTQVTVSS	high polyreactivity
QVQLVESGGGLVQAGGSLRLSCAASGSIFNKNAMGWYRQAPGKERELVAAITSSGSSTYYADSVKGRFTISRDNAKNTVYLQMNSLKPEDTAVYYCNAQYGIRPRAGRTRQKYDYWGQGTQVTVSS	high polyreactivity
QVQLVESGGGLVQSGGSLRLSCAAYGLILTHYSMGRYRQAPGKESELVAAIDYGGGSNTYYADSVKGLFTISRDNAKNTDYLQMNSLKPEDTAVYYCAAYRAGNSYDPRLNYWGQGTQVTVSS	high polyreactivity
QVQLVESGGGLVQAGGTLRLSCDASGSIFFWKAMGWYRQAPGKERELVAAISYTDGSTYYADSVKGRFTIPRDNAKNTVYLLMNSLKPEDTAVYYCAAAITPSYNGSEYDYWGQGTQVTVSS	low polyreactivity
QVQLVESGGGLVQAGGSLRLSCAASGRTFKPYAMGWYRPAPGKDRELVAAISTRGGSTYFADSVKGRFTISRDNAKNTVYLQMNSLKPEDTAVYYCAATQPVRDYDYWGQGTQVTVSS	low polyreactivity
QVQLVESGGGLVQAGGSLRLSCAASGFTFKCYTMGWYRQAPGKERELVAGISRRGGSTYYADSVKGRFTISRDNAKNTVYLQMNSLKPEDTAVYDCAADSQLTKFYYWGQGSQVTVSS	high polyreactivity
QVQLVESGGGLVQAGGSLRLSCAASGFTFYLYTMAWYRQAPGKERELVATITSDGGTNYADSVKGRFTISRDNAKNTVYLQMNSLKPEDTAVYYCARTARRRYQPYEYWGQGTQVTVSS	low polyreactivity
QVQLVESGGGLVQAGGSLRLSCAASGSIFLINAMGWYRQAPGKERELVAAISRSGGRTYYADSVKGRFTISRDNAKNTVYLEMNSLKPEDTAVYYCAVPSIYYAVRAYDYWGQGTQVTVSS	high polyreactivity
QVQLVESGGGLVQAGGSLRLSCAASGRTFARNAMGWYRQAPGKERELVAAITSIGTRTYYADSVKARFTISRDNAMNTVYLQMNSLKREDTAVYYCNKKRTADYDYWGQGTQVTVSS	low polyreactivity
QVQLVESGGGLVQAGGSLRLSCAASGRIFHYYAMGWYRQAPGKERELVAAINKSGGRTYYADSVKGRFTISRDNAKNTVYLQMNSLKPEDTAVYYCAAQDGYWGQGTQVTVSS	high polyreactivity
QVQLVESGGGLVQAGGSLRLSCAASGRTFYGYTMGWYRQAPGKERELVAAISTGGGSTYYADSVKGRFTISRDNAKNTVYLQMNSLKPEDTEVYYCAARGGSYSFRRYNYWGQGTQVTVSS	high polyreactivity
QVQLVESGGGLVQAGGSLRLSCAASGFTFRRNVMGWYRQAPGKERELVAAIRGSDGSTYYADSVKGRFTISRDNAKNTVYLQMNSLKPEDTAVYYCNVVGKGLYRKMGYWGQGTQVTVSS	high polyreactivity
QVQLVESGGGLVQAGGSLRLSCAASGRTFRRYTMGWYRQAPGKVRELVAAITTSGGSTYYADSVKGRFTISRDNAKNTVYLQMNRLKPEDTAVYYCAATRRYSGDYWGQGTQVTVSS	high polyreactivity
QVQLGESGGGIVQAGGSLRLSCAASGRTFAFNAMGWYRQAPGKERELVAAIRWSGGSTYYADSVKGRFTISRDNAKNTVYLQMNSLKPEDTAVYYCATGKWGYFRYNYWGQGTQVTVSS	high polyreactivity
QVQRVESGGGLVQAGGSLRLSCAASGNTFTVNAMGWYRQAPGKERELVAAINYSGGSTYYADSVKGRFTISRDNAKNTVYLQKNSLKPEDTAVYYCAASPDELLYEMYYWGQGTQVTVSS	low polyreactivity
QVQLVESGGGLVQAGGSLRLSCAASGITFKTYAMGWYRQAPGKVRELVATITRGSRTNYADSVKGRFTISRDNAKNTVYLQMNSLKREHTAVYYCAAHYTTFIRSPDGDYLGQGTQVTVSS	low polyreactivity
QDQLVESGGGLVQAGGSLRLSCAASGSTFVRYDMGWYRQAPGKERELVADISWSGVSTYADSVKGRFTISRDNAKNTVYLQMNSLKPEDTAVYYCAKDSDLYQRGGYYWGQGTQVTVSS	low polyreactivity
QVQLVESCGGLVQAGGSLRLSCAASGGTFGFYAMGWYRQAPGKERELVAAISRRGGSTYYADSVKGRFTISRDNAKNTVYLQMNSLKPEDTAVYYCAARVYRYRHYDYWGQGTQVTVSS	high polyreactivity

====

test summary: yeast display, Sf9 membrane polyspecificity reagent, FACS + sequencing; frameworks hold sequencing errors

sequence text	polyreactivity (PSR sort gate)
QVHLVESGGGLVQAGGSLRLSCAASGSTFALYGMGWYRQAPGKERELVAASTWSGTGTYYADSVKGRFTISRDNAKNTVYLQMNSLKPEDTAVYYCAADGYTTYYSEFYYWGQATQVTVSS	low polyreactivity
QDQLVESGRGLVQAGGSLRLSCAASGNTFYRYTMGWYRQAPGNERELVDAISGRGGSTTYADSVKGRFTISRDPAKNTVYLQMKSLIPEDTAVYYCAAVTGGTAYYASTYYYWGQGTQVTVSL	high polyreactivity
QVQLVESGGGLVQAGGSLRLSCAASGRIFYSNAMGWYRQAPGKERELVAAIRDSAGSTRYADSVKGRFTISRDNAKNTVYLQMNSLKPEDTAVYYCNKDYVSIYFEYLDDYWGQGTQVTVSS	low polyreactivity
QVQLVESGGGLVQAGGSLRLSCAASGFIFSLYAMGWYRQAPGKERELVAAISKRGGSTNYADSVKGRFTISRDNAKNTVFLQMNSLKPEDTAVYYCAKARPGFLYDHWGQGTEVTVSS	high polyreactivity
QVQLVESGGGLVQAGGSLRLSCAASGFTFHNNVMGWYRQAPGKERELVATISKSGGSTYYADSVKGRFTISRDNAKNTVYLQMNSLKPEDTAVYYCAAETPTHDEWGQGTQVTVSS	high polyreactivity
QVQLVESGGGLVQAGGSHRLSCAASGSIFLFNAMGWYRQAPGKERELVAAITSPTARTYYADSVKGRFTISRDIAKNTVYLQMNSLKPEDTAVYYCAARYRYAYGYGRGYSWGQGTQVTVSS	high polyreactivity
QVQLVESGGGLVQAGGSLRLSCAASGSIFPKNAMGWSRQAPGKVREFVATITKRGGRTYYADSVKGRFTISRDNAKNTVYLQMNSQKPEEPAVYYCARDQGKLVVPYDYWGQGTQLTVSS	high polyreactivity
QVQLVESGGRLVQAGGSLRLSCAPSGFIFGYYAMGWYRQAPGKERELVAAISPSGGRTYYADSVKGRFTISRDNAKITVFLQMNSLKPEDTAVYYCAAEYAYSLDPEEDYWGQGTQVTVSS	high polyreactivity
QVQLVESGGGLVQAGGSLRLSCPASGRTFWWYAMGWYRQAPGKEREIVAAISQRGTSTYYADSVKGRFTISRDNAKNTVYLQMNSLNPEDTAVYYCAADRPYYPLKYDYWGQGTQVTVSS	high polyreactivity
QVQLVESGGRLVKAGGSLRLSCPASGRIFADYAMGWYRQAPGKESELVADIRRSGGRTYYADSVKGRFTISRDNAKNTVYIQMNSLKPEDTAVYYCATDYGSWGDYSGNYDYWGQGTQVTVSS	low polyreactivity
QVQLVESGGGLVQAGGSLRLSCAASGLTFSRYAMGWYRQAPGKERELVAAITSIGGSTYYADSVKGRFTISRDNAKNTVYLQMNSLKPEDTAVYYCRAFFRRDYWGQGTQVNVSS	high polyreactivity
QVQLVEKGGGLVQAGGSLRLSCAPSGGLFSKNAMGCYRQAPGKVRELVAGISSGGTTYYADSVKGRFTISRDNAKNTGYLQMNSLKPEDSAVYYCAVPYYRRLGPLNDSWGQGTQVTVSS	low polyreactivity
QVQLVESVGGLLQAGGSLRLSCAASGSIFDVYTMGWYRQAPGKVRELFAAINTGGGSTYYADSVKGRFTISRDNAKNTVYCQMNSLKPEVTAVYYCAASVYHYGPLYYWGQGTQVTVSS	low polyreactivity
QVQLVESGGGLVQAGGSLRLSCAASGRIFESYAMGWYIQAPGKERELVAAISSGGGTTYYADSVKGLFTISRDNAKYSVYLQMNSLKPEDTAVYYCAADALSDEYDYWGQGTHVTVSS	low polyreactivity
QVQLVESGGGLVQAGGSLRLSCAASGSIFGYNAMGWYRQAPGKDREFVAAIRWSSGSTYYADSVKGRFTISRDNAKNTVYLQMNSLKPEDTAVYYCATRQTYLYWGQGTQVTVSS	high polyreactivity
QVQLVESGGGLVQAGGSLRLSCAASGSTFWATAMGWYRQAPGKERELVAAITTSGASTNYADSVKGRFTISRDNAKNTVYLQMNSLKPEDTAVYYCAADYDSYYWYNYWGQGTQVTVSS	low polyreactivity
QVQLVESGGGLVQAGGSLRLSCAASGSILGTYAMGWYRQAPGKERDLVAAISSSGRTSYADSVKGRFTISRDNAKNTVYLQMNSLKPEDTAVYFCNKVTSYYVFYTPYYSWGQGTQVTVSS	low polyreactivity
QVQLVESGGGLVQAGGSLRLSCAASVRTLPSYAMGWYRQAPGKERELVAAISQSGGSTYYADSVKGRFTISRDNAKNTVYLQMNSLKPEDTAVYYCNAGYYYKYSPRRFDYWGQGTQVTVSS	high polyreactivity
QVQLVESGGGLVQAGGSLRLSCAASGRIFYRYSMGWYRQAPGKERELVAGISSGGRTNYADSVKGRFTISRDNAKNTVYLQMNSLKPEDTAVYYCNKARSRWSDARSSFGYDYWGQGTQVTVSS	low polyreactivity
QVQLVESGGGFVQAGGSLRLSCAASGSTFSPNGMGWYRPAPGKERELVAAISSSTGSTNYADSVKGRFTISRDNAKNTVYLQMNSLKPEDTAVYYCAVDPYVHWTTKLYDYWGQGSQVTVSS	low polyreactivity
QVQLVESGGGLVQAGGSLRLSCAASGSTFTGYAMGWYRQAPGKERELVAAISRSGGSTSYADSVKGRFTISRDNAKNTVYLQMNSLKPEDTAVYYCAAQVQGTTRAKQRGGIGELDYWGQGTQLTVSS	low polyreactivity
